Quick reference for MRT among some compounds
test_summary: MRT in rat at 1 mg/ml, po or iv
Assay type: ADME, organism-based
test_settings: in vivo
readout_label: MRT (h)

CCNCC(=O)NC12CCC(Cn3nc(C)c4c3CCN(c3cc(C)nc5c3cnn5C)C4)(CC1)CC2 2.8
CN[C@@H](C)C(=O)NC12CCC(Cn3nc(C)c4c3CCN(c3cc(C)nc5c3cnn5C)C4)(CC1)CC2 1.6
Cc1cc(N2CCc3c(c(C)nn3CC34CCC(NC(=O)[C@@H]5COCCN5)(CC3)CC4)C2)c2cnn(C)c2n1 1.2

###

measured_target: UniProt Q9QUK6
Sequence (Q9QUK6 whole entry): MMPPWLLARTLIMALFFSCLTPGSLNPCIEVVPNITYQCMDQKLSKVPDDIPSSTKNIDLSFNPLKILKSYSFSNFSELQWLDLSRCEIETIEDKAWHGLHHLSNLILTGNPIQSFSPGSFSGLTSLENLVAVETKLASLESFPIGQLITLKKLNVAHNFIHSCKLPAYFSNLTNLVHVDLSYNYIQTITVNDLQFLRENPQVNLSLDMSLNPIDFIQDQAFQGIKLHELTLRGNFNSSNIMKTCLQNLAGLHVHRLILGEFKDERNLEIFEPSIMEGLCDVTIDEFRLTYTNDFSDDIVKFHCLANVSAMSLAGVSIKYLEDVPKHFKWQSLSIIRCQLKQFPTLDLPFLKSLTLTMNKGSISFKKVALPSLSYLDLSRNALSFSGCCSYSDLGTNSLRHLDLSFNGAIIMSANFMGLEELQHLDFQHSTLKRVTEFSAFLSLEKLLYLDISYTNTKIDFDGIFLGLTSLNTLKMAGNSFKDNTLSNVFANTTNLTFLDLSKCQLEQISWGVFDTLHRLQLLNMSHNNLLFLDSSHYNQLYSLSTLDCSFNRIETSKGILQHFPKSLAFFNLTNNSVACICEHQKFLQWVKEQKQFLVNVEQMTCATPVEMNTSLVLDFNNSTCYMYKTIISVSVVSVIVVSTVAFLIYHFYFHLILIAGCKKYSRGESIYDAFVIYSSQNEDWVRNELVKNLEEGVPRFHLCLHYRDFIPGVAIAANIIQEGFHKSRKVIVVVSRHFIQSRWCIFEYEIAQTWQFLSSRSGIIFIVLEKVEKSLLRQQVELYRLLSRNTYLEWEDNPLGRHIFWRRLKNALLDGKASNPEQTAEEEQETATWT
test_summary: Antagonist activity at TLR4 in mouse Splenocyte assessed as reduction IL-6 level measured after 20 hrs by Spectramax M5 method
Format: cell-based
pIC50: −log10 of the molar value.
readout_label: pIC50

Cc1cc(N2CCc3c(c(C)nn3CC34CCC(NC(=O)[C@@H]5COCCN5)(CC3)CC4)C2)c2cnn(C)c2n1 < 5.00

###

measured_target: Toll-like receptor 7 (Homo sapiens, UniProt Q9NYK1)
Sequence (Q9NYK1 whole entry): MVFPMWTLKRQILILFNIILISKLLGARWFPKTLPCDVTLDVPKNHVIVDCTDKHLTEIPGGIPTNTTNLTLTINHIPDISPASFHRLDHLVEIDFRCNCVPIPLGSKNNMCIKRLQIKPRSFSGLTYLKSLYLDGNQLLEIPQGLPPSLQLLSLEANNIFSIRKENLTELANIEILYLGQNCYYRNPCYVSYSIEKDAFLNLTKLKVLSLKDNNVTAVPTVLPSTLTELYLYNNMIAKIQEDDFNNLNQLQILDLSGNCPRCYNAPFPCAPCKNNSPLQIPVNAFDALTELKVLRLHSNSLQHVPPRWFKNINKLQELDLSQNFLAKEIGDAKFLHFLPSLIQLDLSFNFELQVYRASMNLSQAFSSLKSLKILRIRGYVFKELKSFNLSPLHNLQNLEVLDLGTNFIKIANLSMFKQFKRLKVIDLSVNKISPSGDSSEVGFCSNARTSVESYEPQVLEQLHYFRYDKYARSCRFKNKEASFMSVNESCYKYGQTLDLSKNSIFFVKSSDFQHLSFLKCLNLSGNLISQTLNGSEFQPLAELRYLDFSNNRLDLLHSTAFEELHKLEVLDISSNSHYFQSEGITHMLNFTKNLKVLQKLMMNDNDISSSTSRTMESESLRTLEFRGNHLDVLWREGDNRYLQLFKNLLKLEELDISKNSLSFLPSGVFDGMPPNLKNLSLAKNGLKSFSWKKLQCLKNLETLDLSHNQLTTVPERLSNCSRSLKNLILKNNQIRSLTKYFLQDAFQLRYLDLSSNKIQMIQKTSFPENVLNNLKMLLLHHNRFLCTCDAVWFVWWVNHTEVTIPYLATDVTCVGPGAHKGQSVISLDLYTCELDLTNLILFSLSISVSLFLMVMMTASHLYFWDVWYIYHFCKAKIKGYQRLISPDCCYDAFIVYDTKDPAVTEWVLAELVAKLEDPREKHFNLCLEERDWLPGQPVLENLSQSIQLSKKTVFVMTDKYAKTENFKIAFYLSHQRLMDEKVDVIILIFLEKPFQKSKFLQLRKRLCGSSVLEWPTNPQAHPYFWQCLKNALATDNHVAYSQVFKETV
test_summary: Antagonist activity at TLR7 in human PBMC cells assessed as reduction in IFN alpha measured after 20 hrs by AlphaLISA assay
Format: cell-based
readout_label: IC50 (nM)

Cc1cc(N2CCc3c(c(C)nn3CC34CCC(NS(C)(=O)=O)(CC3)CC4)C2)c2cnn(C)c2n1 8
Cc1cc(N2CCc3c(c(C)nn3CC34CCC(NC(=O)CN(C)C)(CC3)CC4)C2)c2cnn(C)c2n1 6
CNC12CCC(Cn3nc(C)c4c3CCN(c3cc(C)nc5c3cnn5C)C4)(CC1)CC2 7
Cc1cc(N2CCc3c(c(C)nn3CC34CCC(N(C)C)(CC3)CC4)C2)c2cnn(C)c2n1 9
CCNCC(=O)NC12CCC(Cn3nc(C)c4c3CCN(c3cc(C)nc5c3cnn5C)C4)(CC1)CC2 17
COCCNC12CCC(Cn3nc(C)c4c3CCN(c3cc(C)nc5c3cnn5C)C4)(CC1)CC2 10

###

measured_target: Toll-like receptor 8 (Homo sapiens, UniProt Q9NR97)
Sequence (Q9NR97 whole entry): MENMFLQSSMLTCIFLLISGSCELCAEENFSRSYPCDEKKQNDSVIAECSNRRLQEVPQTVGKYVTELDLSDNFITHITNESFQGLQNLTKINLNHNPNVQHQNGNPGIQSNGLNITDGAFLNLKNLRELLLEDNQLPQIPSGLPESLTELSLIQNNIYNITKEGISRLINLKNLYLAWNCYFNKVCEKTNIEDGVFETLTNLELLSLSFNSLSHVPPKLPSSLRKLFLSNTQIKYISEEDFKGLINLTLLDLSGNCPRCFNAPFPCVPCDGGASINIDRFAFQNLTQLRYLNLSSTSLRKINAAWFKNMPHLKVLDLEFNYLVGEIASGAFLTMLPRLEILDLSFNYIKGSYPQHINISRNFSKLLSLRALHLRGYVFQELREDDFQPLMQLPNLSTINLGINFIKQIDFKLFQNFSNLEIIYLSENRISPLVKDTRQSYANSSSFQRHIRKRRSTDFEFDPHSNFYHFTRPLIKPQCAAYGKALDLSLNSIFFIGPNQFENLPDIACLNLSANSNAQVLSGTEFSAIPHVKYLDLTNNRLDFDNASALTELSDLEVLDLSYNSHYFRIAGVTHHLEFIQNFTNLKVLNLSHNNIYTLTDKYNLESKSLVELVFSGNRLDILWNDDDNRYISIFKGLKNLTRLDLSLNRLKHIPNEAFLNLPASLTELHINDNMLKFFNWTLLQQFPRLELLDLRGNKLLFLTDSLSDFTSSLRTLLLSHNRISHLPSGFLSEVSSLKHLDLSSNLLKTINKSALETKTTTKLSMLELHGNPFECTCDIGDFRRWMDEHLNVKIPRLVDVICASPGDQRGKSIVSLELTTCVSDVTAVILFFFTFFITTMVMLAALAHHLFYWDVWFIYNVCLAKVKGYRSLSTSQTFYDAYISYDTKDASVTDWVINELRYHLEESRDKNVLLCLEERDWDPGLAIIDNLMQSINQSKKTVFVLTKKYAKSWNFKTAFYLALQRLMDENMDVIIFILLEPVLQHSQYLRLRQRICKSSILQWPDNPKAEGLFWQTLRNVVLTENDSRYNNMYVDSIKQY
test_summary: Antagonist activity at TLR8 in human PBMC cells […] assessed as reduction in IL-6 level measured after 20 hrs by AlphaLISA assay
Assay type: cell-based
Rule for this label: satisfied means IC50 is less than 100 nM; not satisfied means IC50 is at least 100 nM.

Cc1cc(N2CCc3c(c(C)nn3CC34CCC(N5CCCC5)(CC3)CC4)C2)c2cnn(C)c2n1 satisfied
Cc1cc(N2CCc3c(c(C)nn3CC34CCC(N(C)C)(CC3)CC4)C2)c2cnn(C)c2n1 not satisfied
Cc1cc(N2CCc3c(c(C)nn3CC34CCC(NC(=O)[C@@H]5CNCCO5)(CC3)CC4)C2)c2cnn(C)c2n1 satisfied
Cc1cc(N2CCc3c(c(C)nn3CC34CCC(N5CCC5)(CC3)CC4)C2)c2cnn(C)c2n1 not satisfied
Cc1cc(N2CCc3c(c(C)nn3CC34CCC(NCC(F)F)(CC3)CC4)C2)c2cnn(C)c2n1 not satisfied
Cc1cc(N2CCc3c(c(C)nn3CC34CCC(NC5CCC5)(CC3)CC4)C2)c2cnn(C)c2n1 satisfied
Cc1cc(N2CCc3c(c(C)nn3CC34CCC(NC(=O)[C@@H]5COCCN5)(CC3)CC4)C2)c2cnn(C)c2n1 satisfied
